B1: tRNA (parent)
chain: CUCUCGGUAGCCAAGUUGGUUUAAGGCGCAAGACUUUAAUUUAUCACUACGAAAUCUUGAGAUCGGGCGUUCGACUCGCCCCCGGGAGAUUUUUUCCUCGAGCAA

- Variants of: B1
- method: nonsense suppression (GFP-seq) (ratio to wild type); higher = more function; SUP4oc tRNA, yeast GFP reporter sort-seq
Fewer inactive variants are shown than the library holds.
reportedEndpoint: nonsense suppression
# respond with the number and nothing more

{"variantCode": "C34U A60G", "reportedEndpoint": "nonsense suppression", "dataValue": 0.0428}
{"variantCode": "G7C A60U G61A C82G", "reportedEndpoint": "nonsense suppression", "dataValue": 0.0263}
{"variantCode": "G19U G28A", "reportedEndpoint": "nonsense suppression", "dataValue": 0.0287}
{"variantCode": "U57C G61A", "reportedEndpoint": "nonsense suppression", "dataValue": 0.0312}
{"variantCode": "U20C C64U", "reportedEndpoint": "nonsense suppression", "dataValue": 0.0503}
{"variantCode": "G6A U55C", "reportedEndpoint": "nonsense suppression", "dataValue": 0.262}
{"variantCode": "U21A A87G", "reportedEndpoint": "nonsense suppression", "dataValue": 0.493}
{"variantCode": "C3U C5U", "reportedEndpoint": "nonsense suppression", "dataValue": 0.158}
{"variantCode": "U4C G61U", "reportedEndpoint": "nonsense suppression", "dataValue": 1.02}
{"variantCode": "G28A C82U", "reportedEndpoint": "nonsense suppression", "dataValue": 1.15}

## Task I have this variant here, U21G G61U , and I need its recorded nonsense suppression.
## Result 0.554

## Task I have this variant here, U20A G61C , and I need its recorded nonsense suppression.
## Result 0.0711

## Task I have this variant here, C1G U20C , and I need its recorded nonsense suppression.
## Result 0.0266

## Task I have this variant here, C12U U20C , and I need its recorded nonsense suppression.
## Result 0.177

## Task I have this variant here, A60G A74G , and I need its recorded nonsense suppression.
## Result 0.0684
